Below, each of the binders is paired with its reported kon value.
Biological target: T1, recombinant mouse TfR-1, His-tagged (Sino Biological 50741-M07H) (mouse, UniProt Q62351 89-763)
T1 construct: bought; His-tagged; also called mTfR1; mTfR-1
T1 sequence (Q62351 89-763 limits assumed, stated change not applied): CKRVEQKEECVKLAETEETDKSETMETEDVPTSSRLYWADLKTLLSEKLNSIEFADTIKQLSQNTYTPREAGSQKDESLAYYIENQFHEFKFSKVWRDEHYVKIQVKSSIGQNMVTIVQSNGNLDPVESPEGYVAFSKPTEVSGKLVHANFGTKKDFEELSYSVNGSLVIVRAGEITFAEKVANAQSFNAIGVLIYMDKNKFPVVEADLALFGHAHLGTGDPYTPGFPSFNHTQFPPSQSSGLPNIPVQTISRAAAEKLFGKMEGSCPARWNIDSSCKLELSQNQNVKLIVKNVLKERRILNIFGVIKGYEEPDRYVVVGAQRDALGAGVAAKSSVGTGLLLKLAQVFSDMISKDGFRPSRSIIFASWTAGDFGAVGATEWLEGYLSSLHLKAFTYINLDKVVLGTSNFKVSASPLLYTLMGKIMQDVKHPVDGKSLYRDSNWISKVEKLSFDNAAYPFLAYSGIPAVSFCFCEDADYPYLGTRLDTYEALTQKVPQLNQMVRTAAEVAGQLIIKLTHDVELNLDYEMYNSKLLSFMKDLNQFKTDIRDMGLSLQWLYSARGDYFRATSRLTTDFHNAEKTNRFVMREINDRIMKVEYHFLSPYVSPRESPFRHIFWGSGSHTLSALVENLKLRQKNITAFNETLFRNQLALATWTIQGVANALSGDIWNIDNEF
Assay: SPR, His-captured TfR1

- Binder: "Clone C variant 4 VNAR-hFc (Fc fusion, not shown: a dimerising Fc or GST) ARVDQTPQTITKETGESLTINCVLRDSNCALSSTYWYRKKSGSTNEENISKGGRYVETVNSGSKSFSLRINDLTVEDSGTYRCNVVQRPSYNNYFWCDVYGDGTAVTVN"
  kon, M⁻¹ s⁻¹: 37400
- Binder: "Clone C variant 8 VNAR-hFc (Fc fusion, not shown: a dimerising Fc or GST) ARVDQTPQTITKETGESLTINCVLRDSNCALSSTYWYRKKSGSTNEENISKGGRYVETVNSGSKSFSLRINDLTVEDSGTYRCNVVQWPSYNNYFWCDVYGDGTAVTVN"
  kon, M⁻¹ s⁻¹: 63500
- Binder: "Clone C variant 17 VNAR-hFc (Fc fusion, not shown: a dimerising Fc or GST) ARVDQTPQTITKETGESLTINCVLRDSNCALSSTYWYRKKSGSTNEENISKGGRYVETVNSGSKSFSLRINDLTVEDSGTYRCNVVQYPQYDNYFWCDVYGDGTAVTVN"
  kon, M⁻¹ s⁻¹: 180000
- Binder: "Clone C variant 9 VNAR-hFc (Fc fusion, not shown: a dimerising Fc or GST) ARVDQTPQTITKETGESLTINCVLRDSNCALSSTYWYRKKSGSTNEENISKGGRYVETVNSGSKSFSLRINDLTVEDSGTYRCNVVQWPTLSSPFWCDVYGDGTAVTVN"
  kon, M⁻¹ s⁻¹: 38300
